Hey, just so you know, these numbers are from patent US20250109140A1.

# IC50 listing for each entry below
# Test system: SMN2 mRNA
# experimental.protocol: Splicing RT-qPCR gene panel, SMN2 canonical junction (CJ) mRNA
# Format: cell-based
# recorded.conditions: Homo sapiens; Table 8; larger gene panel, decrease in CJ mRNA levels

CN1CCC2(CC1)CCN2c1cc2sc(-c3cc(F)c4nn(C)cc4c3)nc2s1 = 1000 to 10000 nM

IC50 recorded for this molecule, Cn1cc2cc(-c3nc4cn(C5CCNCC5)nc4s3)cc(F)c2n1 , is < 100 nM

IC50 recorded for this molecule, Cc1cn2cc(-c3nc4cn(C5CCNCC5)nc4s3)nc(C)c2n1 , is 1000 to 10000 nM

IC50 recorded for this molecule, Cc1cn2cc(-n3cc4sc(C5CCNCC5)cc4n3)cc(Cl)c2n1 , is 100 to 1000 nM

IC50 recorded for this molecule, Cn1cc2c(O)c(-c3nc4sc(C5CCNCC5)cc4s3)ccc2n1 , is 100 to 1000 nM

----------
# pIC50 listing for each entry below
# System: MYB mRNA
# experimental.protocol: Splicing RT-qPCR assay, MYB canonical (CJ) and alternative (AJ) junction mRNA
# Type: cell-based
# recorded.conditions: Homo sapiens; Table 7; IC50 = 50% response in CJ mRNA decrease; RT-qPCR, A673 or K562 cells, 24 hours treatment; read-out: MYB CJ
pIC50: −log10 of the molar value.

Some entries whose results are on file:
Cn1cc2cc(-c3cc4cn([C@H]5CCNC[C@@H]5F)nc4s3)cc(F)c2n1 = 6.00 to 7.00
Cc1cn2nc(-c3nc4sc(C5CCNC5)cc4s3)cc(C)c2n1 (centres unmarked) = 6.00 to 7.00
Cn1cc2c(F)cc(-n3cc4sc(C5CCNCC5)cc4n3)cc2n1 = < 5.00
CN(C)C1CCN(c2cc3sc(-c4cc(F)c5nn(C)cc5c4)nc3s2)CC1 = 6.00 to 7.00
Cn1cc2cc(-c3nc4sc(N5CCC(NC(C)(C)C)C5)cc4s3)cc(F)c2n1 (centres unmarked) = 5.00 to 6.00

Entry Cc1cn2cc(-n3cc4sc(C5CCNCC5)cc4n3)cc(C)c2n1 : pIC50 on MYB mRNA = < 5.00

Entry Cc1cn2nc(-c3cc4cn([C@H]5CCNC[C@@H]5F)nc4s3)cc(C)c2n1 (mixture of isomers) : pIC50 on MYB mRNA = 5.00 to 6.00

Entry COc1c(-c2cc3cn(C4CCNCC4)nc3s2)cc2cn(C)nc2c1F : pIC50 on MYB mRNA = 6.00 to 7.00

----------
# Tested on: Target C
# experimental.protocol: HiBiT protein abundance assay, Target C (K562 HiBiT knock-in cells)
# Type: cell-based, human
# recorded.conditions: 24 hours treatment
# IC50 listing for each entry below

Some entries whose results are on file:
Cn1cc2cc(-c3cc4cn([C@@H]5CCNC[C@@H]5F)nc4s3)cc(F)c2n1 = < 100 nM
Cc1cn2cc(-n3cc4sc(C5CCNCC5)cc4n3)ncc2n1 = 1000 to 10000 nM
Cc1cn2cc(-c3cc4cn(C5CCNCC5)nc4s3)cc(Cl)c2n1 = < 100 nM

IC50 recorded for this compound, Cc1cn2cc(-c3cc4cn(C5CCNCC5)nc4s3)cc(C)c2n1 , is < 100 nM

IC50 recorded for this compound, Cc1cc(-n2cc3nc(C4CCNCC4)sc3n2)cc2cn(C)nc12 , is 1000 to 10000 nM

IC50 recorded for this compound, Cc1cn2nc(-c3cc4cn(C5CCNCC5)nc4s3)cc(C)c2n1 , is 100 to 1000 nM

IC50 recorded for this compound, Cc1cn2cc(-n3cc4sc(C5CCNCC5)cc4n3)nc2c(C)n1 , is > 10000 nM
